Details: Patient ID 193, CYP2D6 functional group EM/EM
Could you label it fulfilled if measured plasma concentration is 2 ng/mL or higher, and not fulfilled otherwise?

Confirm if plasma concentration reported for the compound CC/C(=C(\c1ccc(O)cc1)c1ccc(OCCNC)cc1)c1ccccc1 [(Z)-Endoxifen 3-OH-NDM-Tam] is 2 ng/mL or above.
fulfilled

Confirm if plasma concentration reported for the compound CCC(=C(c1ccccc1)c1ccc(OCCNC)cc1)c1ccc(O)cc1 is 2 ng/mL or above.
fulfilled

Confirm if plasma concentration reported for the compound CC/C(=C(\c1ccccc1)c1ccc(OCCN(C)C)cc1)c1ccc(O)cc1 is 2 ng/mL or above.
not fulfilled

Confirm if plasma concentration reported for the compound CC/C(=C(\c1ccccc1)c1ccc(OCCN(C)C)cc1)c1ccccc1 is 2 ng/mL or above.
fulfilled

Confirm if plasma concentration reported for the compound CC/C(=C(/c1ccc(OCCNC)cc1)c1ccc(O[C@@H]2O[C@H](C(=O)O)[C@@H](O)[C@H](O)[C@H]2O)cc1)c1ccccc1 is 2 ng/mL or above.
not fulfilled
